binders and their reported EC50
Molecular target: T1, GII.4 Sydney 2012 virus-like particles (VLPs), based on strain AFV08795.1 (human norovirus GII.4 Sydney 2012, UniProt P54635 1-538)
T1 construct: also called GII.4 VLPs
T1 chain: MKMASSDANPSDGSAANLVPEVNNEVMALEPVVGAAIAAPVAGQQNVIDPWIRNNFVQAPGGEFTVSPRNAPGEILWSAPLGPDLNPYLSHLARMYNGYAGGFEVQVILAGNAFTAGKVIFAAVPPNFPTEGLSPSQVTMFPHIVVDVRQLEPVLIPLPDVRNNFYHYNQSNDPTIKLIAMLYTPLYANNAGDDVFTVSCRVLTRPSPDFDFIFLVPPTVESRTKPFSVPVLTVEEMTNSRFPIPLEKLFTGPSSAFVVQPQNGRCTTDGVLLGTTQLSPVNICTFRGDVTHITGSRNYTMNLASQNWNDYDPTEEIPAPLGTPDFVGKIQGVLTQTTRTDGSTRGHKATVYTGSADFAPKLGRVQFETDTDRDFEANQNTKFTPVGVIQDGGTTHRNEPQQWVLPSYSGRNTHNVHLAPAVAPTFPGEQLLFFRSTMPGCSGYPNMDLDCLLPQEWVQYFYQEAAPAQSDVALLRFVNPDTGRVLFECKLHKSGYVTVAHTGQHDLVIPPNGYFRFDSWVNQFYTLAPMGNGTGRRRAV
Assay: indirect ELISA on coated GII.4 Sydney 2012 VLPs

BINDER	EC50
NORO-310A (antibody, V domains shown) VH: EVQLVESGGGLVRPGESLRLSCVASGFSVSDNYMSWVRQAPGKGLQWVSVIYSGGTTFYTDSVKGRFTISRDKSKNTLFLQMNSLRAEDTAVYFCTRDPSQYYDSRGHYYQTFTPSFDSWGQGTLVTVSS VL: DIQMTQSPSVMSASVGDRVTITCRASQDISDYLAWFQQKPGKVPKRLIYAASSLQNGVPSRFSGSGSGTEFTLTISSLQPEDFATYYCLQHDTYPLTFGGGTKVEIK	6.2 µg/mL
NORO-303 (antibody, V domains shown) VH: QVQLVESGGGVVQPGRSLRLSCAASGFIFSSYAMHWVRQAPGKGLEWVAVMSYDGNNKYYADSVKGRFTISRDNSKNTLFLQMNSLRPEDTAVYYCARDCRVGWVFTYGMDVWGQGTLVTVSS VL: QSALTQPPSASGSPGQSVTISCTGTSSDVGGYNYVSWYQQHPGKAPKLMMYEISKRPSGVPIRFSGSKSGNTASLTVSGLQAEDEADYYCSSYAGTYNCVVFGGGTKLTVL	0.5 µg/mL

Reference source: patent US20210324050A1
